Cited source: patent US20140336110A1

Target: ferroportin tagged at the C-terminus with green fluorescent protein [GFP: P42212]
Assay: cell-based or functional assay
Starred links: 1 amine or outer side, 2 acyl side, 3 side chain; linkers in the order of their positions; H or OH if unused. Non-standard residues stand in square brackets, D forms with d. Primed or numbered codes have the meaning given here. No end group written: not given here. *: point of attachment. PEG12 = NCCOCCOCCOCCOCCOCCOCCOCCOCCOCCOCCOCCOCCC(=O)O; Dip = N[C@H](C(=O)O)C(c1ccccc1)c1ccccc1; Ida″ = O=C(CN(CC(=O)[*:3])[*:1])[*:2]; Palmitoyl = CCCCCCCCCCCCCCCC(=O)*; β3hF = N[C@H](CC(=O)O)Cc1ccccc1; NMeD = CN[C@@H](CC(=O)O)C(=O)O; β3hP = O=C(O)C[C@@H]1CCCN1; Ach = not defined here; Dpa = not defined here
Answer each item with its documented EC50 (nM) in vitro.
Give bare numbers, in nM.

Answered cases to consult:
- {Palmitoyl-PEG12}-FVCVP[Dip]HTD (not fully specified (C-terminus); printed as R4-F-V-C-V-P-Dpa-H-T-D; also: retroinverted, D residues underlined, underlining lost) [PR51]: 100
- [Ida″]TH[Dpa]P[Ach]C[Ach]F (reading uncertain; also: R14 = Palmitoyl-PEG-miniPEG3- substituent, attachment not placed) [PR60]: 3

Task: I would be grateful if you could share the reported EC50 (nM) in vitro for [NMeD]TH[Dpa][β3hP]RCR[β3hF] (reading uncertain; also: R14 = Palmitoyl-PEG-miniPEG3- substituent, attachment not placed) [PR57] .
Output: 2
